Target: Carbonic anhydrase 1 (Homo sapiens)
Sequence (P00915 whole entry): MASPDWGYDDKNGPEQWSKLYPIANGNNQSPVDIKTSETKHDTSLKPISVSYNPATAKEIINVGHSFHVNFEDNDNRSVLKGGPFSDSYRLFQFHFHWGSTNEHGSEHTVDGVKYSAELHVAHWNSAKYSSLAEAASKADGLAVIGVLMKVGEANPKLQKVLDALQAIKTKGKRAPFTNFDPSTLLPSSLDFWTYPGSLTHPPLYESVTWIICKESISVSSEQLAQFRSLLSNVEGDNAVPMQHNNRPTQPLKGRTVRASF
Assay: Inhibition of human recombinant carbonic anhydrase 1 preincubated for 15 mins by stopped flow CO2 hydration assay
reported endpoint: Ki (nM)

NS(=O)(=O)Cc1ccc(NC(=O)C2CC=CCC2)cc1 (configuration not stated) | 8.9
NS(=O)(=O)Cc1ccc(NS(=O)(=O)c2ccc(Br)cc2Cl)cc1 | 8.6

----------
Molecular target: Carbonic anhydrase 14 (Homo sapiens)
Sequence (Q9ULX7 whole entry): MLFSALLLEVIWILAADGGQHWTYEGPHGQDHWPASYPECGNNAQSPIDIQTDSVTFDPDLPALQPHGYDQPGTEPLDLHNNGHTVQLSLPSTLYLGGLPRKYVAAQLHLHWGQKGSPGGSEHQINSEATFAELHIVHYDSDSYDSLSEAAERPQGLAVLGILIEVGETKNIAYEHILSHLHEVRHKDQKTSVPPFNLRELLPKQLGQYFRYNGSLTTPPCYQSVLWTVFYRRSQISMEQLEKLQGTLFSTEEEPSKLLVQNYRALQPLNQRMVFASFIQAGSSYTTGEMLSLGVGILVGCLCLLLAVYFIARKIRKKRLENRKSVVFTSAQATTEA
Assay: Inhibition of human recombinant carbonic anhydrase 14 preincubated for 15 mins by stopped flow CO2 hydration assay
pKi: −log10 of the molar value.
reported endpoint: pKi

A = NS(=O)(=O)Cc1ccc(NS(=O)(=O)c2ccc(Br)cc2Cl)cc1
B = NS(=O)(=O)Cc1ccc(NC(=O)C2CC=CCC2)cc1 (configuration not stated)
q: Compare the recorded pKi of A and B ; state which is larger. Output the label that corresponds to your choice.
a: B

----------
Target: UniProtKB Q16790
reported endpoint: Ki (nM)
Unit nM implied. Number only.

q: Entry under review: NS(=O)(=O)Cc1ccc(NC(=O)C2CC=CCC2)cc1 (stereo unspecified) . Reported Ki?
a: 53.2
